tested on: Caco-2 monolayers; assay: TEER of Caco-2 monolayers after apical PIP peptide; format: cell-based, human; conditions: 5 mM peptide, Caco-2 monolayer, one-way ANOVA with bonferroni post-test
Where a SMILES comes first, the peptide text is derived from it. [ ]: non-standard residue; d: D form.
Quantity Name: Effect on TEER compared to control (FIG. 1)

molecule="CC(C)[C@@H](NC(=O)[C@@H](CCCCN)NC(=O)[C@@H](CC(=O)O)NC(=O)[C@@H](CCCNC(=N)N)NC(=O)[C@H](N)CCCNC(=N)N)C(=O)N[C@H](CCCCN)C(=O)N[C@@H](C(=O)N[C@H](CCCCN)C(=O)N[C@H](CCCCN)C(=O)N[C@H](CCCNC(=N)N)C(=O)N[C@H](CCCCN)C(N)=O)[C@H](C)O [PIP253, H-rrdkvktkkrk-NH2] (H-[dR][dR][dD][dK][dV][dK][dT][dK][dK][dR][dK]-NH2)" value="not significant"
molecule="C[C@H](O)[C@@H](NC(=O)[C@@H](CCCCN)NC(=O)[C@@H](CC(=O)O)NC(=O)[C@@H](CCCCN)NC(=O)[C@@H](Cc1ccccc1)NC(=O)[C@@H](CCCNC(=N)N)NC(=O)[C@H](N)CCCNC(=N)N)C(=O)N[C@H](CCCCN)C(=O)N[C@H](CCCCN)C(=O)N[C@H](CCCNC(=N)N)C(=O)N[C@H](CCCCN)C(N)=O [PIP254, H-rrfkdktkkrk-NH2] (H-[dR][dR][dF][dK][dD][dK][dT][dK][dK][dR][dK]-NH2)" value="not significant"

Sourced from patent US12692290B2
